// reported log10(MIC) per item
System: Vibrio cholerae
Assay Procedure: Antibacterial activity against Vibrio cholerae after 24 hrs by twofold serial dilution method
Format: functional
Experimental Readout: log10(MIC) (log10 of the value in µg/mL)

compound="CC1/C(=N/N2C(=O)CNC2=S)CC(c2ccc(F)cc2)NC1c1ccc(F)cc1 (stereo unspecified)" tested_on="Vibrio cholerae" test_value=1.10
compound="O=C1CNC(=S)N1N=C1CC(c2ccc(F)cc2)NC(c2ccc(F)cc2)C1 (stereo unspecified)" tested_on="Vibrio cholerae" test_value=0.80
compound="CC1/C(=N/N2C(=O)CNC2=S)CC(c2ccc(Cl)cc2)NC1c1ccc(Cl)cc1 (stereo unspecified)" tested_on="Vibrio cholerae" test_value=1.70
compound="O=C1CNC(=S)N1N=C1CC(c2ccccc2)NC(c2ccccc2)C1 (stereo unspecified)" tested_on="Vibrio cholerae" test_value=1.70
compound="CC1(C)/C(=N/N2C(=O)CNC2=S)CC(c2ccc(Cl)cc2)NC1c1ccc(Cl)cc1 (stereo unspecified)" tested_on="Vibrio cholerae" test_value=1.10
compound="Cc1ccc(C2C/C(=N\\N3C(=O)CNC3=S)C(C)C(c3ccc(C)cc3)N2)cc1 (stereo unspecified)" tested_on="Vibrio cholerae" test_value=1.70
compound="CC1(C)/C(=N/N2C(=O)CNC2=S)CC(c2ccc(F)cc2)NC1c1ccc(F)cc1 (stereo unspecified)" tested_on="Vibrio cholerae" test_value=0.80
compound="COc1ccc(C2C/C(=N\\N3C(=O)CNC3=S)C(C)(C)C(c3ccc(OC)cc3)N2)cc1 (stereo unspecified)" tested_on="Vibrio cholerae" test_value=1.70
compound="CC1(C)/C(=N/N2C(=O)CNC2=S)CC(c2ccccc2)NC1c1ccccc1 (stereo unspecified)" tested_on="Vibrio cholerae" test_value=1.40
compound="O=C(O)c1cn(C2CC2)c2cc(N3CCNCC3)c(F)cc2c1=O [CIPROFLOXACIN]" tested_on="Vibrio cholerae" test_value=1.70
compound="CC1/C(=N/N2C(=O)CNC2=S)CC(c2ccccc2)NC1c1ccccc1 (stereo unspecified)" tested_on="Vibrio cholerae" test_value=2.00
